- targetOrSystem: SARS-CoV-2 nucleocapsid (N) protein, full-length;mAb nCoV396 (human IgG1) (SARS-CoV-2;Homo sapiens) (UniProt P0DTC9)
- protocolDescription: EMSA
readout: Kd

Problem: Which Kd reading was recorded for the sequence AAGUUCGUUU [TRS RNA] ?
Solution: 15.1 µM
